Here, each record is paired with measured HAP affinity (mean retention time/min) data.
test: Mineral binding affinity: elution from hydroxyapatite (HAP) columns by FPLC; assay type: physicochemical; settings: HAP column, mean ± SE
Quick note: give the figure in min, leave out the unit.

### Prompt Item under review: O=P(O)(O)C(O)(Cc1cnc2ccccn12)P(=O)(O)O [Minodronate, minodronate] . Reported HAP affinity (mean retention time/min)?
### Response 10.33

###

assay: Short-term (24-hour) skeletal retention based on urinary excretion after i.v. dosing; format: in vivo, Sprague Dawley rats; conditions: rats, i.v., 0 to 24 hours; mean ± standard deviation, averaged from all studies
observable: Percentage of the dose excreted in urine over 24 hours

### Prompt Entry under review: O=P(O)(O)C(F)(Cc1cnc2ccccn12)P(=O)(O)O [OX14] . Reported Percentage of the dose excreted in urine over 24 hours?
### Response 52.85% ± 3.82

### Prompt Moving on to O=P(O)(O)C(O)(Cc1cnc2ccccn12)P(=O)(O)O [Minodronate, minodronate]
### Response 44.80% ± 1.6

### Prompt Try the compound O=P(O)(O)C(O)(Cc1cccnc1)P(=O)(O)O [Risedronate, risedronate]
### Response 34.91% ± 9.3

### Prompt How about this compound: O=P(O)(O)C(O)(Cn1ccnc1)P(=O)(O)O [Zoledronate, zoledronate]
### Response 27.95% ± 3.18
